# EXPERIMENTAL DETAILS: Circular dichroism (CD) analysis of alpha-helicity
# Format: physicochemical
# CONDITIONS: CD buffer with 50% TFE, 222 nm, 4° C.
Where a SMILES comes first, the peptide text is derived from it. Bridges are numbered along the chain shown (N, C = ends). [ ]: non-standard residue; d: D form. R8 = C=CCCCCCC[C@@](C)(N)C(=O)O; S5 = C=CCCC[C@](C)(N)C(=O)O
READOUT TYPE: Molar Ellipticity 50% TFE (222 in 50% TFE)
State the value with its unit after it.

CC(=O)N[C@@H](CC(C)C)C(=O)N[C@H](C(=O)N[C@@H](Cc1ccccc1)C(=O)N[C@]1(C)CCCCCCC=CCCC[C@@](C)(C(=O)N[C@@H](C)C(=O)N[C@@H](C)C(=O)N[C@@H](C)C(=O)N[C@@H](C)C(=O)N[C@H](C)C(N)=O)NC(=O)[C@H](CC(C)C)NC(=O)[C@H](CCC(N)=O)NC(=O)[C@H](C)NC(=O)[C@H](Cc2c[nH]c3ccccc23)NC(=O)[C@H](Cc2ccc(O)cc2)NC(=O)[C@H](C)NC1=O)[C@@H](C)O | −19032.6 deg cm2 dmol-1

Ask: Identify the reported Molar Ellipticity 50% TFE (222 in 50% TFE) for the following entry. CC(=O)N[C@@H](CC(C)C)C(=O)N[C@H](C(=O)N[C@@H](Cc1ccccc1)C(=O)N[C@]1(C)CCCCCCC=CCCC[C@@](C)(C(=O)N[C@@H](Cc2c[nH]cn2)C(=O)N[C@@H](Cc2c[nH]cn2)C(=O)N[C@@H](CC(C)C)C(=O)N[C@H](C)C(N)=O)NC(=O)[C@H](CC(C)C)NC(=O)[C@H](CCC(N)=O)NC(=O)[C@H](C)NC(=O)[C@H](Cc2c[nH]c3ccccc23)NC(=O)[C@H](Cc2ccc(O)cc2)NC(=O)[C@H](C)NC1=O)[C@@H](C)O [compound 43] (Ac-LTF[R8]AYWAQL[S5]HHL[dA]-NH2; staple 4-11)
Result: −18247.4 deg cm2 dmol-1

---

Collected pKi values appear next to each entry.
# TARGET UNDER TEST: MDMX (Homo sapiens)
# Sequence (O15151 1-125): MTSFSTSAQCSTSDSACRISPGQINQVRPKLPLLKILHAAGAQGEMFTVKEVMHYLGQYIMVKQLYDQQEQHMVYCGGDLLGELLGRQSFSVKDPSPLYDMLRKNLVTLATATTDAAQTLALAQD
# EXPERIMENTAL DETAILS: Competitive fluorescence polarization assay for MDMX
# Format: binding
# CONDITIONS: Ki (MDMX), competitive FP assay
pKi: −log10 of the molar value. Where a SMILES comes first, the peptide text is derived from it. Bridges are numbered along the chain shown (N, C = ends). [ ]: non-standard residue; d: D form. R8 = C=CCCCCCC[C@@](C)(N)C(=O)O; S5 = C=CCCC[C@](C)(N)C(=O)O; Aib = CC(C)(N)C(=O)O

CC(C)C[C@H](NC(=O)CN(C)C)C(=O)N[C@H](C(=O)N[C@@H](Cc1ccccc1)C(=O)N[C@]1(C)CCCCCCC=CCCC[C@@](C)(C(=O)N[C@@H](C)C(=O)N[C@@H](C)C(=O)N[C@@H](C)C(=O)N[C@@H](C)C(=O)N[C@@H](C)C(=O)N[C@H](C)C(N)=O)NC(=O)[C@H](CC(C)C)NC(=O)[C@H](CCC(N)=O)NC(=O)[C@H](C)NC(=O)[C@H](Cc2c[nH]c3ccccc23)NC(=O)[C@H](Cc2ccc(O)cc2)NC(=O)[C@H](CCC(=O)O)NC1=O)[C@@H](C)O (single isomer, unassigned) | > 8.00
CC(=O)N[C@@H](CC(C)C)C(=O)N[C@H](C(=O)N[C@@H](Cc1ccccc1)C(=O)N[C@]1(C)CCCCCCC=CCCC[C@@](C)(C(=O)N[C@@H](C)C(=O)N[C@@H](C)C(=O)N[C@@H](C)C(=O)N[C@@H](C)C(=O)N[C@@H](C)C(=O)N[C@H](C)C(N)=O)NC(=O)[C@H](CC(C)C)NC(=O)[C@H](CCC(N)=O)NC(=O)[C@H](C)NC(=O)[C@H](Cc2c[nH]c3ccccc23)NC(=O)[C@H](Cc2ccc(O)cc2)NC(=O)[C@H](CCC(N)=O)NC1=O)[C@@H](C)O [compound 600] (Ac-LTF[R8]QYWAQL[S5]AAAAA[dA]-NH2; staple 4-11) | > 8.00
CC(=O)N[C@@H](CC(C)C)C(=O)N[C@H](C(=O)N[C@@H](Cc1ccccc1)C(=O)N[C@]1(C)CCCCCCC=CCCC[C@@](C)(C(=O)N[C@@H](C)C(=O)N[C@@H](C)C(=O)N[C@@H](C)C(=O)N[C@@H](C)C(=O)N[C@@H](C)C(=O)N[C@H](C)C(N)=O)NC(=O)[C@H](CC(C)C)NC(=O)[C@H](CCC(N)=O)NC(=O)C(C)(C)NC(=O)[C@H](Cc2c[nH]c3ccccc23)NC(=O)[C@H](Cc2ccc(O)cc2)NC(=O)[C@H](CCC(=O)O)NC1=O)[C@@H](C)O [compound 561] (Ac-LTF[R8]EYW[Aib]QL[S5]AAAAA[dA]-NH2; staple 4-11) | 7.00 to 8.00

Next compound, please.
Ask: Please report the measured pKi for CC(=O)N[C@@H](CC(C)C)C(=O)N[C@H](C(=O)N[C@@H](Cc1ccccc1)C(=O)N[C@]1(C)CCCCCCC=CCCC[C@@](C)(C(=O)N[C@@H](CO)C(=O)N[C@@H](C)C(=O)N[C@@H](C)C(N)=O)NC(=O)[C@H](CC(C)C)NC(=O)[C@H](C)NC(=O)[C@H](C)NC(=O)[C@H](Cc2c[nH]c3ccccc23)NC(=O)[C@H](CCC(=O)O)NC(=O)[C@H](C)NC1=O)[C@@H](C)O (single isomer, unassigned)
Result: 6.00 to 7.00
